Test: CellTiter-Glo cell viability assay, HEK293T CLPP−/− (ClpP dependence);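 also: CellTiter-Glo luminescent signal read on a microplate reader once HEK293T CLPP−/− cells had been exposed to compounds for 72 h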
Settings: human, HEK293T CLPP−/− cells, HEK293T CLPP-/- Cell viability (% of controll), 1.6 μM; 72 h; dose–response, individual replicates
measure: viability at 72 h, 1.6 µM

Returns the measured viability at 72 h, 1.6 µM for the input compound. Input: CNCC#Cc1cccc(CN2C(=O)C3=C(CCN(Cc4ccc(-n5cc(-c6ccccc6)nn5)cc4)C3)N3CCN=C23)c1 [38b] 100%

---

Assay: CellTiter-Glo cell viability assay, HEK293T WT
Conditions: human, HEK293T WT cells, HEK293T WT Cell viability (% of controll), 16.25 μM; 72 h; dose–response, individual replicates
measure: viability at 72 h, 16.25 µM (%)
Your answer should be a plain number; it is taken to be in %.

Returns the measured viability at 72 h, 16.25 µM for the input compound. Input: CNCC#Cc1cccc(CN2C(=O)C3=C(CCN(Cc4ccc(-n5cc(-c6ccccc6)nn5)cc4)C3)N3CCN=C23)c1 [38b] 0
